The origin of these recorded values is ChEMBL document CHEMBL1158680.

assay: Antiplatelet activity against rabbit platelets assessed as inhibition of arachidonic acid-induced platelet aggregation at 10 ug/ml preincubated for 3 mins by turbidimetric method; format: functional, Oryctolagus cuniculus; set-up: scale not given: the % may be the effect or the level left
Field: Activity. Provide a value for each of the compounds that follow.
One number for each entry, in %.

COc1ccc(-c2oc3c(OC)c(O)cc(O)c3c(=O)c2O)cc1	64.5

Report Activity for every entry below.
1. CCC(=O)CC/C=C\CC/C=C/C=C/C(=O)NCC(C)C [LANYUAMIDE II]
2. CC(=O)Oc1ccccc1C(=O)O
3. COc1ccc(-c2oc3c(OC)c(OC)cc(OC(C)=O)c3c(=O)c2OC(C)=O)cc1
4. CC/C=C/C/C=C\CC/C=C/C=C/C(=O)NCC(C)(C)O
5. CC/C=C\C/C=C\CC/C=C/C=C/C(=O)NCC(C)(C)O

44.2
90.2
29
27.8
27.8

---

Field: Activity. Provide a value for each of the compounds that follow.
test system: Aorta; experiment: Vasorelaxation activity in rat aorta assessed as inhibition of K+-induced contraction at 15 ug/ml preincubated for 15 mins relative to control; format: functional; parameters: scale not given: the % may be the effect or the level left
Numbers only, in %.

COc1ccc2c(c1OC)CN1CCc3cc4c(cc3[C@@H]1C2)OCO4	49.8
COc1ccc(-c2oc3c(OC)c(OC)cc(OC(C)=O)c3c(=O)c2OC(C)=O)cc1	57.1
CCCCCCC(=O)CC/C=C/C=C/C(=O)NCC(C)C [LANYUAMIDE I]	47.6

Shift focus to the following entry.
Suppose we examine the compound CCC(=O)CC/C=C\CC/C=C/C=C/C(=O)NCC(C)C [LANYUAMIDE II] ; what Activity value has been reported?
72.5

---

experiment: Antiplatelet activity against rabbit platelets assessed as inhibition of PAF-induced platelet aggregation at 100 ug/ml preincubated for 3 mins by turbidimetric method; assay type: functional, Oryctolagus cuniculus; design: scale not given: the % may be the effect or the level left
Field: Activity. Provide a value for each of the molecules that follow.
One number for each entry, in %.

Answered cases to consult:
COc1ccc(-c2oc3c(OC)c(O)cc(O)c3c(=O)c2O)cc1	73.3
COc1ccc(-c2oc3c(OC)c(OC)cc(O)c3c(=O)c2O)cc1	78.6

Suppose we examine the molecule `CC/C=C/C/C=C\CC/C=C/C=C/C(=O)NCC(C)(C)O` ; what Activity value has been reported?
38.4
